Assay target: T1, Human ACVR2A (human, UniProt P27037 20-135, limits assumed); further: test concentration or dose not given here
T1 construct: also called activin receptor, type II A
T1 sequence (P27037 20-135 limits assumed): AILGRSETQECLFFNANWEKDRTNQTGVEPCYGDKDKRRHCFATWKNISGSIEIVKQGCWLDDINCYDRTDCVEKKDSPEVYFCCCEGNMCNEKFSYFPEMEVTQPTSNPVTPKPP
Assay text: ELISA
Can you tell me optical density for the items I'm about to list?
Give bare numbers, in OD.

Recorded results for 4 binders are shown here.
370_A04 (antibody, V domains shown) VH: EVQLLESGGGLVQPGGSLRLSCAASGFTFDSYSMNWVRQAPGKGLEWVSGINYNGGYTSYADSVKGRFTISRDNSKNTLYLQMNSLRAEDTAVYYCARSANWHDTALDYWGQGTLVTVSS VL: DIQMTQSPSSLSASVGDRVTITCRASQSIITYLNWYQQKPGKAPKLLIYAATSRASGVPSRFSGSGSGTDFTLTISSLQPEDFATYYCQQSYDNPLTFGGGTKVEIK ... 2.57
372_A04 (antibody, V domains shown) VH: EVQLLESGGGLVQPGGSLRLSCAASGFTFDSYSMNWVRQAPGKGLEWVSGINYNSGYTSYADSVKGRFTISRDNSKNTLYLQMNSLRAEDTAVYYCARSANWHDTALDYWGQGTLVTVSS VL: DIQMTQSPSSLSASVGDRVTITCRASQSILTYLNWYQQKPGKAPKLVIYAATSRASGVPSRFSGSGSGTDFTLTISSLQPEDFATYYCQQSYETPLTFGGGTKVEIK ... 3.2
367_G05 (antibody, V domains shown) VH: EVQLLESGGGLVQPGGSLRLSCAASGFTFSDYGMNWVRQAPGKGLEWVANINYNGGYTSYADSVKGRFTISRDNSKNTLYLQMNSLRAEDTAVYYCARSANWHDTALDYWGQGTLVTVSS VL: DIQMTQSPSSLSASVGDRVTITCRASQSIVSYLNWYQQKPGKAPKLVIYAATSLASGVPSRFSGSGSGTDFTLTISSLQPEDFATYYCQQSYDTPLTFGGGTKVEIK ... 2.41
373_A02 (antibody, V domains shown) VH: EVQLLESGGGLVQPGGSLRLSCAASGFTFDSYGMNWVRQAPGKGLEWVSGINYNGGYKGYADSVKGRFTISRDNSKNTLYLQMNSLRAEDTAVYYCARSANWHDTALDYWGQGTLVTVSS VL: DIQMTQSPSSLSASVGDRVTITCRASQSILSYVNWYQQKPGKAPKLVIYATTSLASGVPSRFSGSGSGTDFTLTISSLQPEDFATYYCQQSYNTPLTFGGGTKVEIK ... 2.8

Problem: Entry 371_F01 (antibody, V domains shown) VH: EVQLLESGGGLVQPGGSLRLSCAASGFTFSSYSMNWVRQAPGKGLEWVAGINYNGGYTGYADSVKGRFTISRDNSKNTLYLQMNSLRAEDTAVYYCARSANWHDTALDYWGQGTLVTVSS VL: DIQMTQSPSSLSASVGDRVTITCRASQSILTYVNWYQQKPGKAPKLVIYAATSLASGVPSRFSGSGSGTDFTLTISSLQPEDFATYYCQQSYNNPLTFGGGTKVEIK has what optical density?
Solution: 2.41

The measurements presented in this section are drawn from patent US20210380703A1.
